test: amyloid nucleation score (Sup35N fusion, yeast selection) (log enrichment); library NNK3; higher = more nucleation; inactive = no reads after selection;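 also: zero at mode of non-aggregating sequences after 7 days selection at 30°C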
endpoint.label: amyloid nucleation score

Here's what some known entries look like.
> print(dat)
          sequence.data            endpoint.label    result
1  VTLLWFISPFMMHWWVQRNG  amyloid nucleation score    -0.191
2  GKVNSWIGVRMKLLWSGRFG  amyloid nucleation score  inactive
3  YSWDILSLLRGKETQACICY  amyloid nucleation score  inactive
4       SQMSPSNDMWLALNV  amyloid nucleation score  inactive
5  LGCKESSVPPARVRGPGQAI  amyloid nucleation score  inactive

Dear colleague, could you please provide amyloid nucleation score for the sequences listed below?
1. IERLTCIYRSFESHLAGFVG
2. TYYTSRYL
3. TMCKRLVVTYQLAYWRVSV
4. HSSMIIRLWLDVVVQIRGQ

a:
1: inactive; 2: inactive; 3: inactive; 4: 0.575

----------
assay: amyloid nucleation score (Sup35N fusion, yeast selection) (log enrichment); library NNK2; higher = more nucleation; inactive = no reads after selection
For each record, write down the corresponding amyloid nucleation score.
One number for each entry.

Dear colleague, could you please provide amyloid nucleation score for the substances listed below?
1. KLFRQQCDS
2. LLLNILLCIDPYIPWCLSLR
3. QRGFLRVPSLWCSFCLH
4. DSPRRTFIVQASHFTVYLTR
5. EVLGLV
6. MYDFLVKGRGVCVNLGNSTW
7. GMPQESHSYPLYEMLLGRVG
8. YCGRWELAVWY

a:
1: 0.247; 2: 0.974; 3: -0.176; 4: 8.11; 5: -0.841; 6: -1.21; 7: -0.064; 8: -0.679

----------
assay: amyloid nucleation score (Sup35N fusion, yeast selection) (log enrichment); library NNK3; higher = more nucleation; inactive = no reads after selection
endpoint.label: amyloid nucleation score

Here's what some known entries look like.
> print(dat)
               substance    result
 1  NRRVCYSLISMGIVLVCRYG     0.306
 2       WYLIFGCRASWGSWR    -0.039
 3      NVNVNAFKMSLELRAR  inactive
 4  CMNWCVSRMVNTIVIWCMAY  inactive
 5  EKVSYFSNNVVLIVVINRVC  inactive
 6  VGQCFNELVRFNRSGISRLV  inactive
 7  FCHLLVMLFYKGPKVFCIVM  inactive
 8               WYACRIQ     0.517
 9   YSVLLLLDSYGAWSGAGGE  inactive
10            GGKLKRCVYG  inactive

Dear colleague, could you please provide amyloid nucleation score for the substances listed below?
1. TSTELFRSGSVLRKPRMSSA
2. RLYLVGYRLIRCRFGILGAC
3. TLLLMSWHFGYMRAQF
4. NLVNFYYLVRAFDCELLFRG
5. FSIFSVFEPWMISKFCP
6. LVCDHGSCVKMVIMTDFMSS

a:
-0.255
inactive
3.14
inactive
inactive
inactive

Dear colleague, could you please provide amyloid nucleation score for the substances listed below?
1. AHRLHSLINSLTLSNRSMM
2. VFCHTAIL
3. FLERISFYIKLVSRSYGGTS
4. LSFPYMMTIFCATRFTDPLM
5. EKDNKLLVICMLV

a:
1. inactive
2. inactive
3. inactive
4. inactive
5. inactive

Dear colleague, could you please provide amyloid nucleation score for the substances listed below?
1. GCWECPTYQMLCTRVCLTWT
2. WVHVRPKHCTSGLVTKFANM
3. DVTRTCRYGEVYDWTIKIRP
4. YAMCIISIAFPLTL
5. CLSTFLGRSEKPL
6. LGMGSSDYRGRYRSNS

a:
1: inactive; 2: inactive; 3: inactive; 4: inactive; 5: inactive; 6: inactive

Dear colleague, could you please provide amyloid nucleation score for the substances listed below?
1. DLIWWRGAQAVNTLNSGSKR
2. SILLDMSDQFPALGFSLFII
3. YANCLDNIPDRVQDMYSCFS

a:
1. 0.115
2. inactive
3. inactive

----------
assay: amyloid nucleation score (Sup35N fusion, yeast selection) (log enrichment); library NNK2; higher = more nucleation; inactive = no reads after selection
For each record, write down the corresponding amyloid nucleation score.
One number for each entry.

Here's what some known entries look like.
> print(dat)
          sequence.data            endpoint.label  quantitative.result
1  RLIYCVVGRCCNCSFYFTRM  amyloid nucleation score                 2.75
2         GIVRGYMLSHLFV  amyloid nucleation score                0.262
3  NMFIRKEYWSTLALEIFWWS  amyloid nucleation score               -0.441

Dear colleague, could you please provide amyloid nucleation score for the sequences listed below?
1. VIVLIVLPEYAGVYSHWCWD
2. SWCFYMKGEWWYLLFHSNRS
3. SGSHVYFKSCTGLKLPIVLG
4. CFKFRYRLGGW

a:
1: 0.772; 2: -1.73; 3: 4.5; 4: 4.93

----------
experiment: amyloid nucleation score (Sup35N fusion, yeast selection) (log enrichment); library NNK2; higher = more nucleation; inactive = no reads after selection
Range-based classes on measured amyloid nucleation score: I: < -0.2; II: ≥ -0.2 and < 0.8; III: ≥ 0.8

> print(dat)
              substance  assigned.label
1   FAMDSIKRFFKIIIFSRYT               I
2         YGYKMVTSYVGFL              II
3            SLLLYYMGGK             III
4  WILYLRMNYWKRTCYHAIGM               I

q: Which of the defined bands does the recorded amyloid nucleation score of "LKPPLVAHHGNILCGFLGDG" sit within?
a: I

q: Follow-up entry: "KRSSGRVFHPRMSRW"
a: II

q: Follow-up entry: "TAHYDVGC"
a: I

----------
test: amyloid nucleation score (Sup35N fusion, yeast selection) (log enrichment); library NNK1; higher = more nucleation; inactive = no reads after selection
Label TRUE when amyloid nucleation score is at or above 0.5; anything below gets FALSE.

Example entries begin here.
> print(dat)
              substance  assigned.label
1           GIKRHIEDCLV            TRUE
2   RINLVSVYDRSNDKVSIPS           FALSE
3  KGQSRHVSECVGWVSNVASL           FALSE

q: Entry "KTLDLHISFPQDKLFR" : is its amyloid nucleation score no less than 0.5?
a: FALSE

q: Follow-up entry: "SNSAFCNGSVMCVEVSLRHA"
a: TRUE

q: Follow-up entry: "NVQVKWGQTRVTCWDYGGEH"
a: FALSE

----------
assay: amyloid nucleation score (Sup35N fusion, yeast selection) (log enrichment); library NNK1; higher = more nucleation; inactive = no reads after selection
For each record, write down the corresponding amyloid nucleation score.
Numbers only.

Here's what some known entries look like.
> print(dat)
              substance  quantitative.result
1                LNIGTW                0.185
2          CWVYDGRIYPHL                 1.05
3  LRRLEGLMSLGSFKFSPYGP                0.227
4     VGWASQKINYWLETSGF                0.329
5               MCGDIPQ                 0.35

Dear colleague, could you please provide amyloid nucleation score for the substances listed below?
1. AYNFRSRRWMLFGYNWVSAP
2. AESLIKHLK
3. RVRVSLTWQLISLVVMSEYR

a:
1. 1.59
2. 0.334
3. 0.809

Dear colleague, could you please provide amyloid nucleation score for the substances listed below?
1. MRIPVRLVV
2. NLLWNTVIIFDFVRNLWTWS

a:
[0.027, 0.813]

Dear colleague, could you please provide amyloid nucleation score for the substances listed below?
1. VYCFCQNRSSFYGKMHLGMH
2. SRPNDMFTALVYTCYLPNK
3. LNICCEEYQDRYTTDNFLLL

a:
1. 1.25
2. -0.539
3. 0.583

Dear colleague, could you please provide amyloid nucleation score for the substances listed below?
1. QNVACSMH
2. FRCLRTRSCLQWAQGLGAEA
3. LSAWPTIEEMVPAHMKTTHA

a:
0.093
0.596
0.526

----------
test: amyloid nucleation score (Sup35N fusion, yeast selection) (log enrichment); library NNK1; higher = more nucleation; inactive = no reads after selection
Label yes (1) when amyloid nucleation score is at or above -0.09; anything below gets no (0).

> print(dat)
              substance  assigned.label
1  EVFRRSLGTTDAVGPKHDAQ         yes (1)
2       SGPRRQIDAIMFRGL         yes (1)
3    VGQLSTFCLGILIVLSVN         yes (1)
4  QDQSGPVLASCIWYLCSETN         yes (1)
5         HCWFRSWPWTISK          no (0)

q: Entry "TQPLEIK" : is its amyloid nucleation score no less than -0.09?
a: no (0)

q: Follow-up entry: "LFLECNDTLHRATTGVNLFK"
a: yes (1)

q: Follow-up entry: "NNAHRSVVWRYLVCFSCDFG"
a: yes (1)

q: Follow-up entry: "EPCVGNSNSCCVHC"
a: yes (1)

q: Follow-up entry: "VRRVPKLVHAADLELWAGSE"
a: no (0)

q: Follow-up entry: "AFPPYRIFADRLYMSSPGPA"
a: yes (1)

q: Follow-up entry: "GRGHREPIVKDAAGRLGSWS"
a: no (0)

q: Follow-up entry: "RQLKVARTGLWLGFTFCIQE"
a: yes (1)
